Just for reference, PubChem BioAssay (NCI) is where these values come from.

Measured TGI values are reported for all entries that follow.
# Tested on: OVCAR-5 ovarian
# Run Description: NCI tumour cell line growth inhibition, 48 h

>  <Compound>
Cn1cc2ccccc2c1-c1nc(F)nc(Oc2ccc3c(c2)CC[C@@H]2C3CC[C@@]3(C)C2C[C@H](O)[C@@H]3O)n1 (stereo not given in full)

>  <TGI>
39.2 µM

$$$$
>  <Compound>
CN(/N=C\c1ccnc2ccccc12)c1ccc([N+](=O)[O-])cc1

>  <TGI>
> 100 µM

$$$$
>  <Compound>
CSc1ccc(Nc2cc(=O)[nH]c(=O)[nH]2)cc1

>  <TGI>
> 100 µM

$$$$
>  <Compound>
O=[S@]1c2ccc3ccccc3c2N[C@@H]2[C@H]1[C@H]1C=C[C@@H]2C1

>  <TGI>
> 100 µM

$$$$
>  <Compound>
CCOc1ccn(-c2ccc(F)cc2)c(=O)c1C(=O)Nc1ccc(Oc2ccnc(N)c2Cl)c(F)c1

>  <TGI>
67 µM

$$$$
>  <Compound>
CC(C)=CCCC(C)CCOS(=O)C(F)(F)F (stereo not given)

>  <TGI>
47.8 µM

$$$$
>  <Compound>
CCOP(=O)(OCC)C(C(=O)OC)C(=O)C(=O)Nc1cccc(O)c1 (stereo not given)

>  <TGI>
> 100 µM

$$$$
>  <Compound>
COc1ccc(N=NC(=O)NC(CC(C)C)C(=O)NCC(=O)O)cc1 (stereo not given)

>  <TGI>
> 100 µM

$$$$
>  <Compound>
O=C1CC(CC(=O)c2ccc(Br)cc2)C(=O)/C1=C(/O)c1ccc(Br)cc1 (stereo not given)

>  <TGI>
> 100 µM

$$$$
>  <Compound>
CCCCCCCCCC[C@H](O)[C@H](O)CC[C@@H](O)[C@H]1CC[C@@H]([C@H]2CC[C@H](CCCCCCC[C@@H](O)CC3=C[C@H](C)OC3=O)O2)O1

>  <TGI>
> 100 µM

$$$$
>  <Compound>
CC(=O)N1N=C(c2ccc(Nc3nc(Nc4ccc(F)cc4)nc(Nc4ccc(F)cc4)n3)cc2)CC1c1ccc(N(C)C)cc1 (stereo not given)

>  <TGI>
> 100 µM

$$$$
>  <Compound>
Cc1cc(=O)n(-c2cc3cccccc-3n2)[nH]1

>  <TGI>
> 100 µM

$$$$
>  <Compound>
CC(=O)c1ccc2c(c1)CC1(C2)Cc2cc3c(c(C(=O)O)c2C1)CCC3 (stereo not given)

>  <TGI>
> 100 µM

$$$$
>  <Compound>
CCOC(=O)/C=C(/C(=O)OCC)n1ccc(=O)n(Cc2cnnn2COCCOC(C)=O)c1=O

>  <TGI>
35.9 µM

$$$$
>  <Compound>
CCC(C)[C@@H](Nc1c(O)c2c(c(O)c1Cl)C(=O)C=CC2=O)C(=O)OC (stereo not given in full)

>  <TGI>
> 10 µM

$$$$
>  <Compound>
COc1cc(/C=N/N=C(\N)NO)c(Cl)cc1O

>  <TGI>
> 100 µM

$$$$
>  <Compound>
CC(C)CC(N)C(=O)Nc1ccc2ccccc2c1 (stereo not given)

>  <TGI>
> 100 µM

$$$$
>  <Compound>
Cc1cc(=O)oc2cc(OCC(O)COC(C)C)ccc12 (stereo not given)

>  <TGI>
> 100 µM

$$$$
>  <Compound>
N[C@@H]1CCN(c2c(F)cc3c(=O)c(C(=O)O)cn4c3c2Oc2cc3c(ccc5ccccc53)cc2-4)C1

>  <TGI>
97 µM

$$$$
>  <Compound>
Nc1nc(/C=C\c2ccccc2)nc(N2CCN(c3ccccc3)CC2)n1

>  <TGI>
> 100 µM

$$$$
>  <Compound>
COc1cc(C2c3cc4c(cc3C(OC(=O)C[n+]3ccccc3)C3COC(=O)C23)OCO4)cc(OC)c1OC (stereo not given)

>  <TGI>
> 100 µM

$$$$
>  <Compound>
CCOC(=O)c1c(NC(=S)Nc2ccc(Cl)cc2)sc2c1CCN(C)C2

>  <TGI>
> 100 µM

$$$$
>  <Compound>
N#CC(C(=O)/C(=N\NC(N)=O)C(C#N)c1ccccc1)c1ccccc1 (stereo not given)

>  <TGI>
> 100 µM

$$$$
>  <Compound>
O=[N+]([O-])c1ccc(-n2nc3ccc4c(no[n+]4[O-])c3n2)cc1

>  <TGI>
> 100 µM

$$$$
>  <Compound>
C=CCOC(=O)C1=C(C)NC2=N[C@H](CCCCCCCCC)C[C@@H]3CCC1N23 (stereo not given in full)

>  <TGI>
48.2 µM

$$$$
>  <Compound>
Cc1ccc2nc(C(C)C)c(=O)[nH]c2c1

>  <TGI>
> 100 µM

$$$$
>  <Compound>
O=C(/C=C\c1cccc2ccccc12)c1ccc(Cl)cc1Cl

>  <TGI>
72.3 µM

$$$$
>  <Compound>
CC(=O)C1=C(O)C=C2Oc3c(C(=O)/C=C/c4cc(Cl)cc(Cl)c4)c(O)c(C)c(O)c3[C@]2(C)C1=O

>  <TGI>
8.57 µM

$$$$
>  <Compound>
COC(=O)c1cc(NC(=O)Cc2c[nH]c3ccccc23)cn1C

>  <TGI>
> 100 µM

$$$$
>  <Compound>
CSc1nc2c(c(=O)n1C)N=C(c1ccc([N+](=O)[O-])cc1)CC(c1ccccc1)N2 (stereo not given)

>  <TGI>
> 100 µM

$$$$
>  <Compound>
O=C(/C=C/c1cccc([N+](=O)[O-])c1)c1ccc([N+](=O)[O-])cc1

>  <TGI>
> 100 µM

$$$$
>  <Compound>
CCOC(=O)/C(=N/Nc1ccccc1)N1C(=S)C=C(C)NN(C)C1=S

>  <TGI>
> 100 µM

$$$$
>  <Compound>
O=C1CCc2ccc(O)c(c2)Oc2ccc(cc2)C(Sc2ccccc2)CCO1 (stereo not given)

>  <TGI>
35.3 µM

$$$$
>  <Compound>
N/N=C(/Cc1nc2ccc(C(=O)c3ccccc3)cc2[nH]c1=O)C(=O)Nc1ccc([N+](=O)[O-])cc1[N+](=O)[O-]

>  <TGI>
> 100 µM

$$$$
>  <Compound>
O=C1NN(Cc2ccccc2)C(=O)N2CCC[C@@H]12

>  <TGI>
> 100 µM

$$$$
>  <Compound>
CCCCCC/C=C\CCCCCCCCCC1=C(CN2CCN(C)CC2)C(=O)C=C(OC)C1=O

>  <TGI>
28.8 µM

$$$$
>  <Compound>
Cc1cc(-c2cc(O)ccc2Cl)cc2nnc(Nc3ccc(OCCN4CCCC4)cc3)nc12

>  <TGI>
3.14 µM

$$$$
>  <Compound>
NC1CCC(N(CC(=O)O)CC(=O)O)C(N(CC(=O)O)CC(=O)O)C1 (stereo not given)

>  <TGI>
> 100 µM

$$$$
>  <Compound>
CSCSCC(CO)NC(=O)/C(C)=C\c1c(C)[nH]c(=O)[nH]c1=O (stereo not given)

>  <TGI>
> 250 µM

$$$$
>  <Compound>
COc1ccccc1C(O)[C@@H]1C[C@@H]2[C@H]3CC[C@@](C)([C@@H]2O1)C3(C)C (stereo not given in full)

>  <TGI>
38.6 µM

$$$$
